The values you see were collected from paper PMC3574217.

tested on: LAD ligation model of ischemic heart failure in mice; assay: LAD ligation ischemic heart failure model, echocardiography-derived FS; type: in vivo, mouse; conditions: infusion 28 days
metric-name: protection in the LAD model (increase in FS), in words

1) CCOP(=O)(OCC)SC[C@@]12C[C@@H]1[C@@H](n1cnc3c(N)nc(Cl)nc31)[C@H](O)[C@@H]2O ... protective
2) CCOP(=O)(OCC)OC[C@@]12C[C@@H]1[C@@H](n1cnc3c(N)nc(Cl)nc31)[C@H](O)[C@@H]2O ... highly protective
3) CC(C)OP(=O)(OC[C@@]12C[C@@H]1[C@@H](n1cnc3c(N)nc(Cl)nc31)[C@H](O)[C@@H]2O)OC(C)C ... highly protective
4) CCOP(=S)(OCC)SC[C@@]12C[C@@H]1[C@@H](n1cnc3c(N)nc(Cl)nc31)[C@H](O)[C@@H]2O ... protective
